Ref: patent US20110223176A1

Measured pEC50 values are reported for all entries that follow.
# study_system: T1, human BSG2 (basigin isoform 2) on the cell surface (human, UniProt P35613 140-385)
# T1 construct: Presented on stably transfected BAF3 cells or endogenously on human tumor cell lines (HepG2, MiaPaCa-2, DoHH-2); also called hBSG2; CD147
# T1 sequence: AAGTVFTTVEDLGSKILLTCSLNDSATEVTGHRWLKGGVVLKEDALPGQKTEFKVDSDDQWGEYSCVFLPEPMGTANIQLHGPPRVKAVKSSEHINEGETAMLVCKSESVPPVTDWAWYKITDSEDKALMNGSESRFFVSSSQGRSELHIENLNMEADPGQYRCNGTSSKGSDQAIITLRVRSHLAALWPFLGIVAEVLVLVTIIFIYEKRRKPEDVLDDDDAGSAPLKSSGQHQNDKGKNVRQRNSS
# experiment: cell-based ECL (MSD) binding on cells expressing human BSG2
A value of pEC50 is the negative decimal logarithm of a concentration given in moles per litre.

The cases that follow already have their pEC50 on record.
binder: humanized 6A11-3A3 antibody h3A3-8 (VH.1/VL.1a) (antibody, V domains shown) VH: EVQLVESGGGLVQPGGSLRLSCAASGFTFSNFWMDWVRQAPGKGLEWVGGIRLKSYNYATHYAESVKGRFTISRDDSKNTAYLQMNSLRAEDTAVYYCTRWDGAYWGQGTLVTVSS VL: DIQMTQSPSSLSASVGDRVTITCKASQDVSTDVAWYQQKPGKSPKLLIYSASYRYTGVPSRFSGSGSGTDFTLTISSLQPEDIATYYCQQHYSTPFTFGQGTKLEIK
pEC50: 8.16
--
binder: humanized 6A11-3A3 antibody h3A3-9 (VH.1a/VL.1a) (antibody, V domains shown) VH: EVQLVESGGGLVQPGGSLRLSCAASGFTFSNFWMDWVRQAPGKGLEWIAGIRLKSYNYATHYAESVKGRFTISRDDSKSTVYLQMNSLRAEDTAVYYCTDWDGAYWGQGTLVTVSS VL: DIQMTQSPSSLSASVGDRVTITCKASQDVSTDVAWYQQKPGKSPKLLIYSASYRYTGVPSRFSGSGSGTDFTLTISSLQPEDIATYYCQQHYSTPFTFGQGTKLEIK
pEC50: 8.87

QUERY: Any idea what pEC50 was measured for humanized 6A11-3A3 antibody h3A3-12 (VH.1a/VL.1b) (antibody, IgG1, V domains shown, IgG1) VH: EVQLVESGGGLVQPGGSLRLSCAASGFTFSNFWMDWVRQAPGKGLEWIAGIRLKSYNYATHYAESVKGRFTISRDDSKSTVYLQMNSLRAEDTAVYYCTDWDGAYWGQGTLVTVSS VL: DIVMTQSPSSLSASVGDRVTITCKASQDVSTDVAWYQQKPGKSPKLLIYSASYRYTGVPSRFSGSGSGTDFTLTISSLQPEDIATYYCQQHYSTPFTFGQGTKLEIK ?
RESULT: 9.02
